Target: Cyclin E1 (Homo sapiens, UniProt P24864+Q96SW2)
Sequence (P24864 whole entry): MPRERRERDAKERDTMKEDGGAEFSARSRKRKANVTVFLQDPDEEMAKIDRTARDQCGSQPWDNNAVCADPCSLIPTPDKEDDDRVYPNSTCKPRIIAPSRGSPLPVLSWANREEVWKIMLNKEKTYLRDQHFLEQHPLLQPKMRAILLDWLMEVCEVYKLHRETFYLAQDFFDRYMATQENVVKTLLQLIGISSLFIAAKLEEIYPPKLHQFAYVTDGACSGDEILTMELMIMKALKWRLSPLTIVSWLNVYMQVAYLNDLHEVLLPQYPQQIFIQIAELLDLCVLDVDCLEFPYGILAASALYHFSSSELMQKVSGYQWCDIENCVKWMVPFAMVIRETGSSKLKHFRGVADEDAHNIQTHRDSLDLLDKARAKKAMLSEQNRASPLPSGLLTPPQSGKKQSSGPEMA
Sequence (Q96SW2 whole entry): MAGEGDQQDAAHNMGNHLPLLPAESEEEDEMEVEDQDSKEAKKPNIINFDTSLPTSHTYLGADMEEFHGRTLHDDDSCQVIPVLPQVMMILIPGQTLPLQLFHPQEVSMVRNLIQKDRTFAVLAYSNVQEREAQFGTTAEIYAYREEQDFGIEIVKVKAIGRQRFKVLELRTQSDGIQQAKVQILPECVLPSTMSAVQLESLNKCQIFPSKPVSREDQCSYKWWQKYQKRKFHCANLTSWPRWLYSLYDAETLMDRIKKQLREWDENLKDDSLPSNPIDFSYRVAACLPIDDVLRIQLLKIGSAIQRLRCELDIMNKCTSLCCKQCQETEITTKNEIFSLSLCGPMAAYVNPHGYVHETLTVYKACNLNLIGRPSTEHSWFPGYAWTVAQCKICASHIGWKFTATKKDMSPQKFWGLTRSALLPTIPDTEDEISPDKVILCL
Sequence (Q16531 whole entry partner): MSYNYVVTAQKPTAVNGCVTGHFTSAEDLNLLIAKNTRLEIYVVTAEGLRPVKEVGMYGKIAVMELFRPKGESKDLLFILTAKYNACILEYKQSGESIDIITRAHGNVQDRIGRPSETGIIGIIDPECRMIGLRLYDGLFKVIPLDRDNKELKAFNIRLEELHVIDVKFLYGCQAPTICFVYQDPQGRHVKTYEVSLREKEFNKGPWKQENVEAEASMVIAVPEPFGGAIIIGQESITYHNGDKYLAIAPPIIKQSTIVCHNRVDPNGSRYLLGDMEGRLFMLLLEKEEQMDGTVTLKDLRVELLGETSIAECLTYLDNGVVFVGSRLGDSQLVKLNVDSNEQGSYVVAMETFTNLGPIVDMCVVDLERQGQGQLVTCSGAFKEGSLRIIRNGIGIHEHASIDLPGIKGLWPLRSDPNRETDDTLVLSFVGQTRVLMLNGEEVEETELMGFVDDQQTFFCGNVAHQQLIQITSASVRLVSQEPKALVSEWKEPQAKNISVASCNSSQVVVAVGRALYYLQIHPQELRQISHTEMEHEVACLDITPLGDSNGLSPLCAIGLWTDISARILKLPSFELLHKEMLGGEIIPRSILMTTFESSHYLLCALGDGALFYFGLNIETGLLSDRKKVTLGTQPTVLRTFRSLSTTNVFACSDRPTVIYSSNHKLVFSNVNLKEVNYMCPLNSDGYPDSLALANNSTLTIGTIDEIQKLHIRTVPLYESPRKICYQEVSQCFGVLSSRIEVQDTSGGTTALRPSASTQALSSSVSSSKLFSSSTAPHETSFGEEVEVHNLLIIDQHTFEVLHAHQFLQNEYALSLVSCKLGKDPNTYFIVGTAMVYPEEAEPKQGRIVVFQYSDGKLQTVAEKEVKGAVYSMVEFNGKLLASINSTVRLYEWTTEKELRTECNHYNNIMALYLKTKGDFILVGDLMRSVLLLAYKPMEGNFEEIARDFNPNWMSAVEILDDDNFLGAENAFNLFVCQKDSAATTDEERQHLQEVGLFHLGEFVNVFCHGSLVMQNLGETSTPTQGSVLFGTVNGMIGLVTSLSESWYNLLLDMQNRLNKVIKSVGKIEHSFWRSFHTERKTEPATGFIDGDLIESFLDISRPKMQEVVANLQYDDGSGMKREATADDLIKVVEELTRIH
Assay: Cyclin E1 Cellular Degradation Assay (MSD)
Type: cell-based
Design: endogenous in cells; host or cells: OVCAR3
Conditions: Cyclin E1 cellular degradation
parameter: DC50 (nM)

molecule	experimental.result
COc1c(COC(=O)Nc2ccc(Oc3ccc(Cl)c(F)c3)cc2)ccc2c1C(=O)N(C1CCC(=O)NC1=O)C2 (centres unmarked)	241
O=C1CC[C@H](N2Cc3ccc(COC(=O)Nc4ccc(Oc5ccc(F)c(F)c5)cc4)c(OCCCc4ccccc4)c3C2=O)C(=O)N1	156
COc1c(COC(=O)Nc2ccc(Oc3cc(F)cc(F)c3)cc2)ccc2c1C(=O)N(C1CCC(=O)NC1=O)C2 (centres unmarked)	55
O=C1CCC(N2Cc3ccc(COC(=O)Nc4ccc(Oc5ccc(F)cc5F)cc4F)c(O[C@@H]4CCCOC4)c3C2=O)C(=O)N1 (some centres unmarked)	33
COc1cc(Oc2ccc(F)c(Cl)c2)ccc1NC(=O)OCc1ccc2c(c1OC)C(=O)N(C1CCC(=O)NC1=O)C2 (centres unmarked)	327
CCN(C)C(=O)COc1c(COC(=O)Nc2ccc(Oc3ccc(F)c(F)c3)cc2)ccc2c1C(=O)N(C1CCC(=O)NC1=O)C2 (centres unmarked)	299
O=C1CCC(N2Cc3ccc(COC(=O)Nc4ccc(Oc5ccc(F)c(F)c5)cc4F)c(Oc4ccccc4)c3C2=O)C(=O)N1 (centres unmarked)	263
COc1c(COC(=O)Nc2ccc(Oc3ccc(F)cc3C)cc2)ccc2c1C(=O)N(C1CCC(=O)NC1=O)C2 (centres unmarked)	92
COc1c(COC(=O)Nc2ccc(Oc3cc(F)cc(F)c3)cc2F)ccc2c1C(=O)N(C1CCC(=O)NC1=O)C2 (centres unmarked)	39
O=C1CCC(N2Cc3ccc(COC(=O)Nc4ccc(Oc5ccccc5Cl)cc4)c(OC4CCOCC4)c3C2=O)C(=O)N1 (centres unmarked)	31
O=C1CCC(N2Cc3ccc(COC(=O)Nc4ccc(Oc5ccc(F)c(F)c5)cc4)c(O[C@H]4CC[C@H](O)CC4)c3C2=O)C(=O)N1 (some centres unmarked)	87
COc1cc(Oc2ccccc2C(F)F)ccc1NC(=O)OCc1ccc2c(c1OC)C(=O)N(C1CCC(=O)NC1=O)C2 (centres unmarked)	203
COc1cc(Oc2cc(F)c(F)c(F)c2)ccc1NC(=O)OCc1ccc2c(c1OC)C(=O)N(C1CCC(=O)NC1=O)C2 (centres unmarked)	394
COc1c(COC(=O)Nc2ccc(Oc3ccc4sccc4c3)cc2)ccc2c1C(=O)N(C1CCC(=O)NC1=O)C2 (centres unmarked)	282
COc1c(COC(=O)Nc2ccc(Oc3ccc4ccsc4c3)cc2)ccc2c1C(=O)N(C1CCC(=O)NC1=O)C2 (centres unmarked)	217
CC(C)(O)COc1c(COC(=O)Nc2ccc(Oc3ccc(F)cc3F)cc2F)ccc2c1C(=O)N(C1CCC(=O)NC1=O)C2 (centres unmarked)	15
O=C1CCC(N2Cc3ccc(COC(=O)Nc4ccc(Oc5ccc(F)c(F)c5)cc4)c(OC4COC4)c3C2=O)C(=O)N1 (centres unmarked)	221
COc1cc(Oc2ccc(F)cc2C)ccc1NC(=O)OCc1ccc2c(c1OC)C(=O)N(C1CCC(=O)NC1=O)C2 (centres unmarked)	328
COc1c(COC(=O)Nc2ccc(Oc3ccccc3C(F)(F)F)cc2Cl)ccc2c1C(=O)N(C1CCC(=O)NC1=O)C2 (centres unmarked)	200
O=C1CCC(N2Cc3ccc(COC(=O)Nc4ccc(Oc5ccccc5)cc4)c(Oc4cccnc4)c3C2=O)C(=O)N1 (centres unmarked)	170
